B1: Osa-1-4 twister ribozyme (parent)
chain: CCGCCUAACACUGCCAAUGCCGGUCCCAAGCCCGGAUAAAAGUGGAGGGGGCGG

Variants of: B1
Assay: self-cleavage, relative activity (ratio to wild type); higher = more cleavage; co-transcriptional
quantity-measured: self-cleavage
Give bare numbers.

These recorded examples may help you get a feel for the data.
Ask: Record request: self-cleavage value, item A10G G22A
Result: 0.38

Ask: Look at this variant and give its reported self-cleavage. A38G C9A
Result: 0.45

***
Ask: # self-cleavage lookup, item A28C U24G
Result: 0.05
